Reference source for all entries: patent EP1903056A2

# targetOrTestSystem: HLA-B*4001 (human)
# testName: competition binding assay, purified HLA
# reportedConditions: remark: other sources report otherwise

binder: PETHLDMLRHL [Her2/neu 39 …]
IC50 / nM: 700
